- Target Of Assay: SMARCA2 (Homo sapiens, UniProt P51531)
- Sequence (P51531 whole entry): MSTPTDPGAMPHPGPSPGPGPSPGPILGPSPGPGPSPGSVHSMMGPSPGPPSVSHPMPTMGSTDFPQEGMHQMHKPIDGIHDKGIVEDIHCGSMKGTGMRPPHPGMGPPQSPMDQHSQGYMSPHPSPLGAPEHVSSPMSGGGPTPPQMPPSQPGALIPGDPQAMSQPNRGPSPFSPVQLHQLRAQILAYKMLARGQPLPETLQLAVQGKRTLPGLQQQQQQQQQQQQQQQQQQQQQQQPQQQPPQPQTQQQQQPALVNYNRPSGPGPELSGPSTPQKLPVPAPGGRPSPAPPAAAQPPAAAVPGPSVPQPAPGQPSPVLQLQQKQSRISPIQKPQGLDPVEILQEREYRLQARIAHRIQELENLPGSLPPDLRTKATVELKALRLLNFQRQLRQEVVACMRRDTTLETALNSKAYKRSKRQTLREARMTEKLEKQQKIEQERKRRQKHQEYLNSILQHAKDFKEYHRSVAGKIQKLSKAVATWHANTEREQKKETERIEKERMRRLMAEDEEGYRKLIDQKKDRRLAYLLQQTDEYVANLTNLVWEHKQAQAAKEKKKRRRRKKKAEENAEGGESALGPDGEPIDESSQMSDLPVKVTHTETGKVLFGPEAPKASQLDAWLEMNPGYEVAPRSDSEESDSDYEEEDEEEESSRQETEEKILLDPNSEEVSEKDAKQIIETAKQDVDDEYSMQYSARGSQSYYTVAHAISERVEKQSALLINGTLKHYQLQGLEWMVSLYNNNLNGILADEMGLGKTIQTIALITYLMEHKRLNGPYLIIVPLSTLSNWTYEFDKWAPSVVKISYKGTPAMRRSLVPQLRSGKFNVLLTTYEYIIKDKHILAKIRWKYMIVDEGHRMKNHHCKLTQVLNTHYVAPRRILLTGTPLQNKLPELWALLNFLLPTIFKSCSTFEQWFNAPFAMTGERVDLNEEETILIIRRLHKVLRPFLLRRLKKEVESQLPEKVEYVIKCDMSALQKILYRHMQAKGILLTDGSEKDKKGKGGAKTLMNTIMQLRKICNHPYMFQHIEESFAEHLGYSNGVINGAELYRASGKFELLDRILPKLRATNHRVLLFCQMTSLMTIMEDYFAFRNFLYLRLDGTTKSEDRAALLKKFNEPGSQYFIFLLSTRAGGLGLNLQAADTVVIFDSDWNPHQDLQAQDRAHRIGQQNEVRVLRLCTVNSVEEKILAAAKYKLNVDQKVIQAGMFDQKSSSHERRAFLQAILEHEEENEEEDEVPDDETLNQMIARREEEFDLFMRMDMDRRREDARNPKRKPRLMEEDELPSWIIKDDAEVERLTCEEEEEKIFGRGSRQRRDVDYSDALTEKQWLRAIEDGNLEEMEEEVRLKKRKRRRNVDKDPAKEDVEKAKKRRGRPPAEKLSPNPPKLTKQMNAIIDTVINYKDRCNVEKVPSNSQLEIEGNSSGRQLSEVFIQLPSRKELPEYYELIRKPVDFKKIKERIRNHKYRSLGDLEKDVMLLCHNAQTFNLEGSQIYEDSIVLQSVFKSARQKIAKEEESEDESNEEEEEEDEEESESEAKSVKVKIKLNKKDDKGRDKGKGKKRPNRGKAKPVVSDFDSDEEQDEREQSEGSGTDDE
- Procedure Text: SMARCA2 degradation in HeLa cells (Western blot)
- Type: cell-based
- Parameters: endogenous in cells
- Condition Info: 80 nM, 4 hours
- Method: Test Example 10 Degradation rate (%) of SMARCA2/4 by the PROTAC compounds of the present invention in HeLa cells and SW1573 cells HeLa cells were seeded at 1.2 x 10^5 cells/well in a 6-well plate. […] After 4 hours, cells were harvested, the culture medium was aspirated, and the cells were rinsed once with 1 mL/well PBS. […] After lysis and centrifugation, total protein extracts were obtained, and protein concentration in the extracts was determined by BCA assay. […]
Parameter: Degradation rate of SMARCA2 in HeLa cells (%)

- Cn1c(=O)n(C2CCC(=O)NC2=O)c2cc3c(cc21)C1(CCN(C[C@H]2CC[C@H](Cn4cc(-c5cc(-c6ccccc6O)nnc5N)cn4)CC2)CC1)CO3 (some centres unmarked): 90
- Nc1nnc(-c2ccccc2O)cc1C#CC1CCC2(CC1)CC(N1CCC3(CCc4cc(F)c(C(=O)N[C@H]5CCC(=O)NC5=O)cc4O3)CC1)C2 (some centres unmarked): 14
- Nc1nnc(-c2ccccc2O)cc1C#CC1CCC2(CC1)CC(N1CCC3(CCc4ccc(NC5CCC(=O)NC5=O)cc4O3)CC1)C2 (centres unmarked): 29
- COc1cc2c(cc1C(=O)N[C@H]1CCC(=O)NC1=O)C1(CCN(C3CC4(CCC(C#Cc5cc(-c6ccccc6O)nnc5N)CC4)C3)CC1)CO2 (some centres unmarked): -3
- Cn1c(=O)n(C2CCC(=O)NC2=O)c2cc3c(cc21)OC1(CC3)CCN(C2CC3(CCC(C#Cc4cc(-c5ccccc5O)nnc4N)CC3)C2)CC1 (centres unmarked): 100

---

- Target Of Assay: UniProtKB P51532
- Sequence (P51532 whole entry): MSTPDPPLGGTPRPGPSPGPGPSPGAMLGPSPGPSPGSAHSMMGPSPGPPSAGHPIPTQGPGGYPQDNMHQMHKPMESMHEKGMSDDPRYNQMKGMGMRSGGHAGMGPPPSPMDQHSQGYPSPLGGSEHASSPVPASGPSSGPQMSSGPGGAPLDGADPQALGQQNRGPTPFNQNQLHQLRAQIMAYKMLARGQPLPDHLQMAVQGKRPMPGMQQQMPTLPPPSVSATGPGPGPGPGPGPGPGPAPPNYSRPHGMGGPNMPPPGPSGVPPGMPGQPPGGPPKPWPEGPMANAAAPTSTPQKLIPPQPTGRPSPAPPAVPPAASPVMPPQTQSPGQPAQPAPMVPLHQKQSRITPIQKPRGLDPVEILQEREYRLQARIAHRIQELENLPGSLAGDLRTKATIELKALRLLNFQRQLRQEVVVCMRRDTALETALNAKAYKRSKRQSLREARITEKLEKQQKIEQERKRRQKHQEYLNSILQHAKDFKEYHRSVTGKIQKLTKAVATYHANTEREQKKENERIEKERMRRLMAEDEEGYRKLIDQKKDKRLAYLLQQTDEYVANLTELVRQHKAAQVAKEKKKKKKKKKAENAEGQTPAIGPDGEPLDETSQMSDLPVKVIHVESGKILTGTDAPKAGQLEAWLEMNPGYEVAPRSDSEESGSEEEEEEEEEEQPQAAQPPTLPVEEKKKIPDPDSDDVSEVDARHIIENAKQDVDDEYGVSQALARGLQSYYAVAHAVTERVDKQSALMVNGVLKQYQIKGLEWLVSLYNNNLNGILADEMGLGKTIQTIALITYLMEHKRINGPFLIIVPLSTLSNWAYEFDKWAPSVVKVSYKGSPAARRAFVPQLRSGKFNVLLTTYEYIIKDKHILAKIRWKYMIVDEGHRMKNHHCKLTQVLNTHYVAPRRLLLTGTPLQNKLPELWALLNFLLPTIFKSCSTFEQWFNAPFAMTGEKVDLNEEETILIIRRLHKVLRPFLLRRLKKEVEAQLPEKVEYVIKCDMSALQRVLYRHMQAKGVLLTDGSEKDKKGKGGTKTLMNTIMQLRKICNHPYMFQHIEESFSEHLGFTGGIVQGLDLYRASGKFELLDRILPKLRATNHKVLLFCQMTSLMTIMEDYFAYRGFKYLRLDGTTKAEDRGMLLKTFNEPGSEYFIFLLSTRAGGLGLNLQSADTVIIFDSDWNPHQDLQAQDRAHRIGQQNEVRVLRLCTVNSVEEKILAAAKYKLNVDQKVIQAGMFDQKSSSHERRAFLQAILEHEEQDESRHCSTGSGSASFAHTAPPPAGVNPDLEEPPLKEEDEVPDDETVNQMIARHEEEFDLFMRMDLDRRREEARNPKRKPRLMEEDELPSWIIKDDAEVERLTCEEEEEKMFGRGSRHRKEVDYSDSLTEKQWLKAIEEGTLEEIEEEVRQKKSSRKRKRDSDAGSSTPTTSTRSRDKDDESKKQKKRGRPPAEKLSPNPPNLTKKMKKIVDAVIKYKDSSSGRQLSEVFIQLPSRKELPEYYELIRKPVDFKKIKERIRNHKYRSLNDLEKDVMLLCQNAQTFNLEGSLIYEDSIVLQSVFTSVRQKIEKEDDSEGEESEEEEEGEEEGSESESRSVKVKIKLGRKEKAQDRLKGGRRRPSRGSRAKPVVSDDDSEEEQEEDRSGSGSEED
- Procedure Text: SMARCA4 degradation in SW1573 cells (Western blot)
- Format: cell-based
- Parameters: endogenous in cells; host or cells: SW1573
- Condition Info: 80 nM, 24 hours, read-out: Degradation rate of SMARCA4 in SW1573 cells (%)
Parameter: Dmax at 0.08 µM

* Nc1nnc(-c2ccccc2O)cc1C#CC1CCC2(CC1)CC(N1CCC3(CC1)CCC1(CC3)COc3c1ccc1c3CN(C3CCC(=O)NC3=O)C1=O)C2 (stereo not shown) [SM-P-2] | 100%
* Nc1nnc(-c2ccccc2O)cc1C#CC1CCC2(CC1)CC(N1CCN3c4cc(NC5CCC(=O)NC5=O)ccc4OCC[C@H]3C1)C2 (stereo partly shown) [SM-P-17] | 12%
* Nc1nnc(-c2ccccc2O)cc1C#CC1CCC2(CC1)CC(N1CCC3(CC1)Cc1ccc(NC4CCC(=O)NC4=O)cc1O3)C2 (stereo not shown) [SM-P-25] | -10%
* CN(C(=O)c1ccc2c(c1)OC[C@H]1CN(C3CC4(CCC(C#Cc5cc(-c6ccccc6O)nnc5N)CC4)C3)CCN21)[C@H]1CCC(=O)NC1=O (stereo partly shown) [SM-P-18] | -34%

---

- System: T-47D cells
- Procedure Text: Inhibition of cell proliferation in T-47D cells (CCK-8)
- Type: cell-based
- Condition Info: Homo sapiens, T47D, 144 h, 6 days treatment, CCK-8 cell viability
Parameter: log10 of IC50 (log10 of the value in nM)

• O=C1CC[C@H](NC(=O)c2ccc3c(c2)OCC[C@H]2CN(CC4CCC(OC5CCN(c6ccc([C@@H]7c8ccc(O)cc8CC[C@@H]7c7ccccc7)cc6)CC5)CC4)CCN32)C(=O)N1 (some centres unmarked) [ER-P-44] = 0.10
• Cn1c(=O)n(C2CCC(=O)NC2=O)c2ccc3c(c21)OCC31CCN(C[C@H]2CC[C@@H](OC3CCN(c4ccc([C@@H]5c6ccc(O)cc6CC[C@@H]5c5ccccc5)cc4)CC3)CC2)CC1 (some centres unmarked) [ER-P-54] = -0.82
• Cn1c(=O)n(C2CCC(=O)NC2=O)c2cc3c(cc21)C1(CCN(C(=O)C2CN(CC4CCN(c5ccc([C@@H]6c7ccc(O)cc7CC[C@@H]6c6ccccc6)cc5)CC4)C2)CC1)CO3 (some centres unmarked) [ER-P-26] = -0.29
• O=C1CC[C@H](NC(=O)c2ccc3c(c2F)OCC32CCN(C3CC4(CCN(c5ccc([C@@H]6c7ccc(O)cc7CC[C@@H]6c6ccccc6)cc5)CC4)C3)CC2)C(=O)N1 [ER-P-37] = 1.28
• O=C1CCC(N2Cc3c(ccc4c3OCC43CCC4(CC3)CN(C(=O)C3CCN(c5ccc([C@@H]6c7ccc(O)cc7CC[C@@H]6c6ccccc6)cc5)CC3)C4)C2=O)C(=O)N1 (some centres unmarked) [ER-P-4] = 0.56

---

- System: VCaP cells
- Procedure Text: Inhibition of VCaP cell proliferation (WST-8)
- Format: cell-based
- Condition Info: Homo sapiens, 168 hours
Parameter: IC50. Scope: all listed entries.
Parameter: IC50 (nM)

• C[C@H]1CC2(CCN(c3ccc(C(=O)N4CCC(CN5CCN6c7ccc(C(=O)N[C@H]8CCC(=O)NC8=O)cc7OC[C@@H]6C5)CC4)cc3)CC2)CN1c1ccc(C#N)c(Cl)c1 = 1320
• COc1cc(O[C@H]2C(C)(C)[C@H](NC(=O)c3ccc(N4CCC(CN5CCC6(CCc7cc(C(=O)N[C@H]8CCC(=O)NC8=O)c(F)cc7O6)CC5)(OC)CC4)cc3)C2(C)C)ccc1C#N = 1660
• Cn1c(=O)n(C2CCC(=O)NC2=O)c2cc3c(cc21)C1(CCN(C2CC4(CCN(c5ccc(C(=O)N[C@H]6CC[C@H](Oc7ccc(C#N)c(Cl)c7)CC6)nn5)CC4)C2)CC1)CO3 (relative stereo) = 0.023
• COc1cc(O[C@H]2C(C)(C)[C@H](NC(=O)c3ccc(N4CCC(CN5CCC6(CC5)COc5c6ccc(C(=O)N[C@H]6CCC(=O)NC6=O)c5F)CC4)cc3)C2(C)C)ccc1C#N = 2580
• COc1cc(O[C@H]2C(C)(C)[C@H](NC(=O)c3ccc(N4CCC(CN5CCN6c7ccc(N[C@H]8CCC(=O)NC8=O)cc7OC[C@@H]6C5)CC4)cc3)C2(C)C)ccc1C#N = 4700

---

- Test system: LNCaP cells
- Procedure Text: Inhibition of LNCaP cell proliferation (WST-8)
- Type: cell-based
- Condition Info: Homo sapiens, LNCaP FGC cells, 96 hours
Below, each entry is listed with its recorded IC50.
Parameter: IC50 (µM)

• C[C@H]1CC2(CCN(c3ccc(C(=O)N4CCC(CN5CCC6(CC5)Cc5ccc(NC7CCC(=O)NC7=O)cc5O6)CC4)cc3)CC2)CN1c1ccc(C#N)c(Cl)c1 (stereo partly drawn) = 0.39
• C[C@H]1CC2(CCN(c3ccc(C(=O)N4CCC(CN5CCN6c7ccc(C(=O)N[C@H]8CCC(=O)NC8=O)cc7OC[C@H]6C5)CC4)cc3)CC2)CN1c1ccc(C#N)c(Cl)c1 = 0.97
• COc1cc(O[C@H]2C(C)(C)[C@H](NC(=O)c3ccc(N4CCC5(CC4)CC(N4CCC6(CCc7cc(C(=O)N[C@H]8CCC(=O)NC8=O)c(F)cc7O6)CC4)C5)cc3)C2(C)C)ccc1C#N = 2.23

---

Recorded measurements of percent AR protein degradation at a fixed concentration at 0.01 µM, one per entry
- Target Of Assay: AR protein (Homo sapiens, UniProt P10275, T878A)
- Construct: host or cells: LNCaP FGC
- Sequence (P10275 whole entry T878A): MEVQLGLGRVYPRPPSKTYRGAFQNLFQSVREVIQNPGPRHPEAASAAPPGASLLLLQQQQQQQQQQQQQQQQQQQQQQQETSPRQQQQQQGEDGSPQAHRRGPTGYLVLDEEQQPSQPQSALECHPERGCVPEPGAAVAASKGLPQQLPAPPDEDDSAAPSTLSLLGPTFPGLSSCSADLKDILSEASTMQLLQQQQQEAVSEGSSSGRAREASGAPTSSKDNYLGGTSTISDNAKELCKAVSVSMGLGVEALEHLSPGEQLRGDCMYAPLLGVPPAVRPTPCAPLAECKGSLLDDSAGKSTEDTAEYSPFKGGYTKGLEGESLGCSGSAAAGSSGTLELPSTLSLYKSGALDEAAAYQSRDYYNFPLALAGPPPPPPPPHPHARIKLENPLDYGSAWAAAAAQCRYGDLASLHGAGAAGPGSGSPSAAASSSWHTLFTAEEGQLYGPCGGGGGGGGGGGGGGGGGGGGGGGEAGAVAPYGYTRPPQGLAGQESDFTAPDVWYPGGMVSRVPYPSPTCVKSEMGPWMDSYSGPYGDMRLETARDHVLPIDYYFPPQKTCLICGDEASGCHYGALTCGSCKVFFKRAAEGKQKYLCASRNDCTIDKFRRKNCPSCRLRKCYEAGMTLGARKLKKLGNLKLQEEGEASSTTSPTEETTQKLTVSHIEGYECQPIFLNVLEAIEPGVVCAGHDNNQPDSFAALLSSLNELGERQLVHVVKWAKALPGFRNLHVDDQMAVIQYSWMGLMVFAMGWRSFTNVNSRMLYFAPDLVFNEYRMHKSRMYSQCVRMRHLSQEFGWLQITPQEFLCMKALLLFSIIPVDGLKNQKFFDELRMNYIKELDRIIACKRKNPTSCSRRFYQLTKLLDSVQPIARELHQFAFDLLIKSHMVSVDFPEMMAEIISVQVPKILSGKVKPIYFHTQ
- Procedure Text: AR protein degradation in LNCaP cells (Western blot)
- Type: cell-based
- Condition Info: 10 nM, 8 hours
Parameter: percent AR protein degradation at a fixed concentration at 0.01 µM (%)

- COc1cc(O[C@H]2C(C)(C)[C@H](NC(=O)c3ccc(N4CCC(C)(CN5CCC6(CCc7cc(C(=O)N[C@H]8CCC(=O)NC8=O)c(F)cc7O6)CC5)CC4)cc3)C2(C)C)ccc1C#N [A-P-31]: 47
- COc1cc(O[C@H]2CC[C@H](NC(=O)c3ccc(N4CCC5(CC4)CC(N4CCC6(CC4)COc4cc7c(cc46)n(C)c(=O)n7C4CCC(=O)NC4=O)C5)nn3)CC2)ccc1C#N (stereo partly drawn) [A-P-11]: 76
- N#Cc1cc2c(cc1Cl)OC1(CCN(c3ccc(C(=O)N4CCC(CN5CCC6(CCc7cc(C(=O)N[C@H]8CCC(=O)NC8=O)c(F)cc7O6)CC5)CC4)cc3)CC1)CO2 [A-P-46]: 4

---

- Target Of Assay: ERα (Homo sapiens, UniProt P03372)
- Sequence (P03372 1-595): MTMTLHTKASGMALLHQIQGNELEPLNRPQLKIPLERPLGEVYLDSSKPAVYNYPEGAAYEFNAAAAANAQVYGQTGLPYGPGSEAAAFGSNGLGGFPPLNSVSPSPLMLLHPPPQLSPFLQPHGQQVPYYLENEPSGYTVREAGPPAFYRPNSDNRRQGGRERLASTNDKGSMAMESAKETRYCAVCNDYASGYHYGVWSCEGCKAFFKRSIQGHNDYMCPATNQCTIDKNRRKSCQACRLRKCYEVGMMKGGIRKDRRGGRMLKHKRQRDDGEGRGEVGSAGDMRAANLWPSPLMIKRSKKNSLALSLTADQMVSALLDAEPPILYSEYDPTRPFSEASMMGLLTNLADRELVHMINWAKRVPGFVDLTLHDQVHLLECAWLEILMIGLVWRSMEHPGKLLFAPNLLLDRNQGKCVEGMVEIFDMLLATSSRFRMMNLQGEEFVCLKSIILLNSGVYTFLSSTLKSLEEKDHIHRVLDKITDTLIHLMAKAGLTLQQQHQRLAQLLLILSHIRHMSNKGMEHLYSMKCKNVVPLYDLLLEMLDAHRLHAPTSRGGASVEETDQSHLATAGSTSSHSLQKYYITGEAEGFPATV
- Procedure Text: ERα degradation in MCF-7 cells (Western blot)
- Assay type: cell-based
- Parameters: host or cells: MCF-7
- Condition Info: 10nM, 4 hours
Tag: rule met if measured Degradation rate of ERα in MCF-7 cells (%) is not below 40%, rule not met if it is.

- Cn1c(=O)n(C2CCC(=O)NC2=O)c2cc3c(cc21)C1(CCN(C2CCN(C(=O)C4CCN(c5ccc([C@@H]6c7ccc(O)cc7CC[C@@H]6c6ccccc6)cc5)CC4)CC2)CC1)CO3 (some centres unmarked): rule met
- O=C1CCC(N2Cc3c(ccc4c3OCC43CCC4(CC3)CN(C3CCC5(CC3)CN(c3ccc([C@@H]6c7ccc(O)cc7CC[C@@H]6c6ccccc6)cc3)C5)C4)C2=O)C(=O)N1 (some centres unmarked): rule met
- O=C1CCC(Nc2ccc3c(c2)COC[C@H]2CN(CC4CCC(OC5CCN(c6ccc([C@@H]7c8ccc(O)cc8CC[C@@H]7c7ccccc7)cc6)CC5)CC4)CCN32)C(=O)N1 (single isomer, unassigned) [ER-P-51]: rule not met
- Cn1c(=O)n(C2CCC(=O)NC2=O)c2ccc3c(c21)OCC31CCN(C[C@H]2CC[C@@H](OC3CCN(c4ccc([C@@H]5c6ccc(O)cc6CC[C@@H]5c5ccccc5)cc4)CC3)CC2)CC1 (some centres unmarked): rule met
